As shown below, each of these substances has a reported log10 kcat/KM value.
SYSTEM: TLP-ste (C288L/N181C) (Geobacillus stearothermophilus, UniProt P06874, C520L/N413C)
RECORDED_CONDITIONS: correction: none; calculated from kcat and KM
Transform log10 | Measure kcat/KM | Unit M⁻¹ s⁻¹

These solved cases illustrate the format of a correct answer.
CF-PSVAGLAGGC(Cy5)-NH2 [8aa-Cy5]; 5.64
CF-PSVAGLAGGC(AF647)-NH2 [8aa-AF647]; 4.86

// sample CF-PAGLAC(AF674)-NH2 [4aa-AF647] , its log10 kcat/KM was 4.12

// sample CF-PAGLAC(Cy5)-NH2 [4aa-Cy5] , its log10 kcat/KM was 5.21

// sample CF-PVAGLAGC(Cy5)-NH2 [6aa-Cy5] , its log10 kcat/KM was 5.42

Reference for the values: paper PMC6641592
